Would you kindly list Ratio over Background, IR for each of these binders?
Target System: T1, Insulin receptor prepared according to Bass et al., 1996 (human, UniProt P06213 28-956, limits assumed)
T1 construct: extracellular domain; also called IR; soluble IR (Bass construct); not shown: immunoglobulin constant domains (Fc or lambda) of the Bass construct
The answer is to be given in ratio over background; state only the numeric part.

Input: Give its Ratio over Background, IR value. Item: DYKDGCITAENGAGDPFYHKLSELGGCSAAAGAP (not shown: rest of the phage display fusion (remainder of E-Tag, phage coat protein)) [B6Hα-1-B3-IR]
Output: 1.1

Input: Request the reported Ratio over Background, IR associated with DYKDLSCLAYSRHGIWRPSTDLGLGRSVGEGSVSTRWRGYDWFEAAAGAP (not shown: rest of the phage display fusion (remainder of E-Tag, phage coat protein)) [40F-4-D1-IGFR]
Output: 0.3

Input: Which value of Ratio over Background, IR has been reported for DYKDSSETAKMVTGTRDDPFYHKLSELVQGSAAAGAP (not shown: rest of the phage display fusion (remainder of E-Tag, phage coat protein)) [B6Hα-2-D8-IR] in the records?
Output: 1

Input: Returns the measured Ratio over Background, IR for the input binder. Input: DYKDVRGFQGGTVWPGYEWLRNAAAAAGAP (not shown: rest of the phage display fusion (remainder of E-Tag, phage coat protein)) [R20β-4-E8-IR]
Output: 3.6

Input: # get_value(readout='Ratio over Background, IR', item= DYKDRCGDEEGWQENRRDDPFYHKLSELFGGCAAAGAP (not shown: rest of the phage display fusion (remainder of E-Tag, phage coat protein)) [B6Hα-3-E5-IR] )
Output: 1

Input: Please give the measured Ratio over Background, IR for this binder: DYKDCGAKMTGTPNDPFYHKLSELLQRGAAAGAP (not shown: rest of the phage display fusion (remainder of E-Tag, phage coat protein)) [B6Hα-3-E6-IR]
Output: 1.2

These entries and their values trace back to patent US20070265189A1.
